Biological target: T1, Recombinant cynomolgus monkey sgM-CSF (cynomolgus (Macaca fascicularis), UniProt P09603 33-255 (human entry), limits assumed)
T1 construct: used also where only 'cynomolgus M-CSF' is printed (ELISA result, SET); also called cynomolgus sgM-CSF; cyno sgM-CSF
T1 chain: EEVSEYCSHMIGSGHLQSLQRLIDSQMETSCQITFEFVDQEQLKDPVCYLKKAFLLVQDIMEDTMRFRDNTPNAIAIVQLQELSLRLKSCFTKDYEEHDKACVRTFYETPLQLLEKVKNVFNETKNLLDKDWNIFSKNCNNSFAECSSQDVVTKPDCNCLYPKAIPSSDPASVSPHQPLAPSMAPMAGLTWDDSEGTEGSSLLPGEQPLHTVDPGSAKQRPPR
Experiment: MSD receptor binding inhibition: 12.5 pM cynomolgus sgM-CSF preincubated with antibody, binding to coated human CSF1-R-Fc
Exercise: state measured pIC50 for each of the binders provided.
Give bare numbers, as −log10 of the molar value.

Known pIC50 results, listed for orientation:
INSERT INTO assay_data (binder, readout_name, measurement) VALUES
  ('Camille, IgG1_D265A (antibody, V domains shown, tested as IgG1 with D265A in the Fc (EU index)) VH: QVQLQQSGPGLVKPSQTLSLTCAISGESVSTSSAAWNWIRQSPSRGLEWLGRTYYRSKWKHEYAVSVKSRITINPDTSKNQFSLQLNSVTPEDTAVYYCARDRYYYSAFDYWGQGTLVTVSS VL: QSALTQPASVSGSPGQSITISCTGTSSDVGGYNSVSWYQQHPGKAPKLLIYAVSNRPSGVSNRFSGSKSGNTASLTISGLQAEDEADYYCASYDERFTRVFGGGTKLTVLG', 'pIC50', 11.23),
  ('Meriem, IgG1_D265A (antibody, V domains shown, tested as IgG1 with D265A in the Fc (EU index)) VH: QVQLQQSGPGLVKPSQTLSLTCAISGDSVSTSSAAWNWIRQSPSRGLEWLGRTYYRSKWKKEYAQSVKSRITINPDTSKNQFSLQLNSVTPEDTAVYYCARDRYYYSAFDYWGQGTLVTVSS VL: QSALTQPASVSGSPGQSITISCTGTSSDVGGYNSVSWYQQHPGKAPKLIIYAVSNRPSGVSNRFSGSKSGNTASLTISGLQAEDEADYYCASYDERFTRVFGGGTKLTVLG', 'pIC50', 11.14),
  ('HeRX1-10G1, IgG1_D265A (antibody, V domains shown, Prior art antibody; tested as IgG1 with D265A in the Fc (EU index)) VH: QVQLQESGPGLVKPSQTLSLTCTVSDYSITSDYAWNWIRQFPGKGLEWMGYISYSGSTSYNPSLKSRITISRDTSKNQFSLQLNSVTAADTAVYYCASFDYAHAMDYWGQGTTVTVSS VL: DIVLTQSPAFLSVTPGEKVTFTCQASQSIGTSIHWYQQKTDQAPKLLIKYASESISGIPSRFSGSGSGTDFTLTISSVEAEDAADYYCQQINSWPTTFGGGTKLEIKR', 'pIC50', 10.74),
  ('Caline, IgG1_D265A (antibody, V domains shown, tested as IgG1 with D265A in the Fc (EU index)) VH: QVQLQQSGPGLVKPSQTLSLTCAISGDSVSSNSAAWNWIRQSPSRGLEWLGRTYYRSKWKHEYAMSVKSRITINPDTSKNQFSLQLNSVTPEDTAVYYCARDRYYYSAFDYWGQGTLVTVSS VL: QSALTQPASVSGSPGQSITISCTGTSSDVGGYNSVSWYQQHPGKAPKLMIYAVSNRPSGVSNRFSGSKSGNTASLTISGLQAEDEADYYCASYDERFTRVFGGGTKLTVLG', 'pIC50', 11.20);

Sample Servane, IgG1_D265A (antibody, V domains shown, tested as IgG1 with D265A in the Fc (EU index)) VH: EVQLVESGGGLVKPGGSLRLSCAASGFTFSTYAISWVRQAPGKGLEWVGFIKSKHNSGTTEYAAPVKGRFTISRDDSKNTLYLQMNSLKTEDTAVYYCARMRYYSDLYFDPWGQGTLVTVSS VL: SYELTQPPSVSVSPGQTASITCSGDKLGQKYVSWYQQKPGQSPVLVISQDRKRPSGIPERFSGSNSGNTATLTISGTQAEDEADYYCQTWTHLQWVFGGGTKLTVLG ; pIC50 observed: 10.93
